# Tested on: KM12 colon
# TEST_NAME: NCI tumour cell line growth inhibition, 48 h
ENDPOINT_NAME: TGI

1) COc1ccc(-c2cc(-c3ccc(Nc4ccnc5cc(Cl)ccc45)cc3)nc(N)c2C#N)cc1: > 100 µM
2) CCCCCCCCCCCCCCCCCCNc1ccn(C2OC(CO)C(O)C2O)c(=O)n1 (stereo not drawn): > 100 µM
3) COc1cccc(Nc2nc(-c3cccs3)nc3ccc(Br)cc23)c1: > 100 µM
4) CCCCCCCCCCC(O)[C@H]1CCC(C2CC[C@H]([C@H](O)CCCCCCCCCCC(O)CC3=CC(C)OC3=O)O2)O1 (stereo partly drawn): 3.66 µM
5) COc1ccc2oc(=O)cc(C)c2c1: > 100 µM
6) N=C(N)C(N=Nc1ccccc1)C(N)=O (stereo not drawn): > 100 µM
7) CC(C)C[C@H](NC(=O)[C@H]1O[C@@H]1C(=O)O)C(=O)NCCc1ccc(O)cc1: > 100 µM
8) O=c1[nH]nc2ccccc2c1Cl: 26.6 µM
9) O=C1CC(c2ccc3c(c2)OCO3)Nc2cc3c(cc21)OCO3 (stereo not drawn): 17.3 µM
10) O=c1c2c(c1=O)C1(SCCCS1)c1cc(Cl)ccc1O2: > 100 µM
11) C=CCNCCCN1C(=O)c2ccc3c4c(ccc(c24)C1=O)C(=O)N(CCCNCC=C)C3=O: 1.62 µM
12) O=C1Nc2ccccc2C1Cc1ccc([N+](=O)[O-])cc1 (stereo not drawn): > 100 µM
13) CN(C)CCNC(=O)c1ccc(C(=O)NCCN(C)C)c2nc3ccccc3cc12: 4.14 µM
14) Nc1ccc2nc3ccc(N)cc3[n+](-c3ccccc3)c2c1: > 100 µM
15) COc1ccc(-c2cnnn2-c2cc(OC)c3c(c2)OCO3)cc1: > 30.8 µM
16) COc1ccc(-c2nnc(SCC(=O)Nc3ccc(/C(C)=N\O)cc3)n2-c2ccccc2)cc1OC: > 100 µM
17) COc1cc(C[C@H]2C(=O)OC[C@@H]2Cc2ccc(OC)c(OC)c2)cc(OC)c1: > 100 µM
18) Cc1nn(-c2ccccc2)c2c1CC(=O)Nc1ccccc1-2: > 100 µM
19) CC(=O)Oc1ccc2c(C)cc(=O)oc2c1: > 100 µM
20) c1cc(CCN2CCCCC2)ccn1: > 100 µM
21) COC(=O)[C@@H](O)[C@]1(C(=O)OC)C2O[C@@H](OC)[C@@H]1CCCCCC[C@H]2O: > 100 µM
22) N=c1c2c(-c3ccccc3)c(-c3ccccc3)n(Cc3ccccc3)c2ncn1CCCO: 14.3 µM
23) CC(=O)CCC(=O)C(=[N+]=[N-])S(=O)(=O)c1ccccc1: > 100 µM

src = PubChem BioAssay (NCI)
